As shown below, each of these binders has a reported IC50 (nM), anti-proliferative effect on LNCaP cells (CellTiter Glo viability) value.
- MEASURED TARGET: PSMA on PSMA-positive LNCaP (clone FGC) and C4-2 cells
- MEASUREMENT DESCRIPTION: cell-based or functional assay
Lab book: enter the figure in nM, no units written.

Give its IC50 (nM), anti-proliferative effect on LNCaP cells (CellTiter Glo viability) value. Item: AB-02-mc-val-cit-PAB-MMAE (antibody, human IgG1, V domains shown, mc-val-cit-PAB-MMAE (maleimide reagent) conjugated after TCEP reduction; average DAR 3.5 (±0.2); attachment residues not given) VH: EVQLVQSGAEVKKPGASVKVSCKASGYTFTEYTIHWVRQAPGKGLEWIGNINPNNGGTTYNQKFEDRVTITVDKSTSTAYMELSSLRSEDTAVYYCAAYWLFDYWGQGTTVTVSS VL: DIQMTQSPSTLSASVGDRVTITCKASQDVGTAVDWYQQKPGQAPKLLIYWASTRHTGVPDRFSGSGSGTDFTLTISRLQPEDFAVYYCQQYNSYPLTFGQGTKVDIK
0.61

Try this binder too: AB-05-mc-val-cit-PAB-MMAE (antibody, human IgG1, V domains shown, mc-val-cit-PAB-MMAE (maleimide reagent) conjugated after TCEP reduction; average DAR 3.5 (±0.2); attachment residues not given) VH: EVQLVQSGAEVKKPGASVKVSCKASGYTFTEYTIHWVRQAPGKGLEWIGNINPNNGGTTYNQKFEDRVTITVDKSTSTAYMELSSLRSEDTAVYYCAAYWLFDYWGQGTTVTVSS VL: DIQMTQSPSTLSASVGDRVTITCKASQDVGTAVDWYQQKPGQAPKLLIYWASTRHTGVPDRFSGSGSGTDFTLTISRLQPEDFAVYYCQQYNAYSLTFGQGTKVDIK
1.27

Also check AB-09-mc-val-cit-PAB-MMAE (antibody, IgG1, V domains shown, mc-val-cit-PAB-MMAE (maleimide reagent) conjugated after TCEP reduction; average DAR 3.5 (±0.2); attachment residues not given) VH: QVQLVESGGGVVQPGRSLRLSCAASGFTFSNYVMHWVRQAPGKGLEWVAIIWYDGSNKYYADSVKGRFTISRDNSKNTLYLQMNSLRAEDTAVYYCAGGYNWNYEYHYYGMDVWGQGTTVTVSS VL: DIQMTQSPSSLSASVGDRVTITCRASQGITNYLAWFQQKPGKAPKSLIYAASSLQSGVPSKFSGSGSGTDFSLTISSLQPEDFATYYCQQYNSYPITFGQGTRLEIK
0.89
